Entry source: ChEMBL document CHEMBL5625200

# test.system: Endothelin-1 receptor (Homo sapiens, UniProt P25101)
# Sequence (P25101 whole entry): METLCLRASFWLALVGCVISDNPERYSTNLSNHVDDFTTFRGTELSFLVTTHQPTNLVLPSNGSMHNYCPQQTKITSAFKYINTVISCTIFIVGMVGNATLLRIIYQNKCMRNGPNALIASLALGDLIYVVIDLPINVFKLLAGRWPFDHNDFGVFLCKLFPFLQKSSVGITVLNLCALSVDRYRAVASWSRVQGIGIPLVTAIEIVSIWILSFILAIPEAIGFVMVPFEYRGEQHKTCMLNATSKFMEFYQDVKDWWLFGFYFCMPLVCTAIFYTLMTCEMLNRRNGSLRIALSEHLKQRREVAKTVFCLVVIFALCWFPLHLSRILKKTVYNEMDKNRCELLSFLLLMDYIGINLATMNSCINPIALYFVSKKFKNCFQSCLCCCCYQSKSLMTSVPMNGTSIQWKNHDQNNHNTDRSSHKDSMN
# protocol.text: Antagonist activity against human ET-1 by ELISA analysis
For each of the compounds below, state its pIC50.
One number for each entry, as −log10 of the molar value.

The cases that follow already have their pIC50 on record.
>>> df
                                   compound                               test_system  quantitative_readout
0  COc1ccccc1Oc1c(NS(C)(=O)=O)nc(-c2ncccn2)nc1OCCC(C)C  Endothelin-1 receptor (Homo sapiens, UniProt P25101)                  9.74
1  COc1ccccc1Oc1c(NS(=O)(=O)c2ccc(C)cc2)nc(-c2ncccn2)nc1OCC1CCCN(C)C1 (stereo unspecified)  Endothelin-1 receptor (Homo sapiens, UniProt P25101)                  8.61
2  C=CCCOc1nc(-c2ncccn2)nc(NS(=O)(=O)c2ccc(C(C)(C)C)cc2)c1Oc1ccccc1OC  Endothelin-1 receptor (Homo sapiens, UniProt P25101)                  8.91

Give me pIC50 for each of these compounds, listed below.
1. COc1ccccc1Oc1c(NS(=O)(=O)c2ccc(C)cc2)nc(-c2ncccn2)nc1OCC1CCCC1
2. COc1ccccc1Oc1c(NS(=O)(=O)c2ccccc2)nc(-c2ncccn2)nc1OCC1CCCCN1C (stereo unspecified)
3. C=CCCOc1nc(-c2ncccn2)nc(NS(=O)(=O)c2ccc(C)cc2)c1Oc1ccccc1OC
4. CC#CCOc1nc(-c2ncccn2)nc(NS(=O)(=O)c2ccccc2)c1Oc1ccccc1OC
5. COc1ccccc1Oc1c(NS(=O)(=O)c2ccccc2)nc(-c2ncccn2)nc1OCC(F)F
6. C=CCCOc1nc(-c2ncccn2)nc(NS(=O)(=O)c2ccccc2)c1Oc1ccccc1OC

Result:
8.79
8.72
8.42
8.36
9.06
8.42

Could I get pIC50 for every one of these entries?
1. COc1ccccc1Oc1c(NS(C)(=O)=O)nc(-c2ncccn2)nc1OCC(F)F
2. CC/C=C/CCOc1nc(-c2ncccn2)nc(NS(=O)(=O)c2ccc(C(C)(C)C)cc2)c1Oc1ccccc1OC
3. COc1ccccc1Oc1c(NS(C)(=O)=O)nc(-c2ncccn2)nc1OCC1CC1

Result:
[9.33, 8.40, 8.62]

Fill in pIC50 for each of the 6 compounds listed.
1. COc1ccccc1Oc1c(NS(=O)(=O)c2ccc(C(C)(C)C)cc2)nc(-c2ncccn2)nc1OCC1CCCCN1C (stereo unspecified)
2. COc1ccccc1Oc1c(NS(=O)(=O)c2ccccc2)nc(-c2ncccn2)nc1OCC1CC1
3. COc1ccccc1Oc1c(NS(C)(=O)=O)nc(-c2ncccn2)nc1OCC1CCC1
4. COc1ccccc1Oc1c(NS(=O)(=O)c2ccccc2)nc(-c2ncccn2)nc1OCC1CCCN1C (stereo unspecified)
5. COc1ccccc1Oc1c(NS(=O)(=O)c2ccc(C(C)(C)C)cc2)nc(-c2ncccn2)nc1OCCC(C)C
6. COc1ccccc1Oc1c(NS(C)(=O)=O)nc(-c2ncccn2)nc1OCC1CCCCN1C (stereo unspecified)

Result:
1. 8.59
2. 8.61
3. 8.77
4. 9.66
5. 8.32
6. 8.66
